system under test: T1, variant human BR3-Fc fusion
T1 construct: produced in CHO cells; also called vBR3-Fc; vhBR3-Fc
protocol: SPR, vBR3-Fc on chip;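 further: Anti-BR3 antibodies passed over chip-bound BR3-Fc in PBS with 0.05% polysorbate 20, on and off rates fitted together globally to a 1:1 binding model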
For each record, write down the corresponding Kd.
Answers are plain numbers, in nM.

Hu9.1-RF Fab (Fab, V domains shown) VH: EVQLVESGGGLVQPGGSLRLSCAASGFTVTAYYMSWVRQAPGKGLEWVGFIRDKANGYTTEYNPSVKGRFTISRDTSKNTFYLQMNSLRAEDTAVYYCAQVRRALDYWGQGTLVTVSS VL: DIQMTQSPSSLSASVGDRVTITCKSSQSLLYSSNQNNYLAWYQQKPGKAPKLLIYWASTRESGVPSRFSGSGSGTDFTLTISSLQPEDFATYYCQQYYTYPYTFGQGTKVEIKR = 6.4
Hu2.1-46 Fab (Fab, V domains shown, Fab) VH: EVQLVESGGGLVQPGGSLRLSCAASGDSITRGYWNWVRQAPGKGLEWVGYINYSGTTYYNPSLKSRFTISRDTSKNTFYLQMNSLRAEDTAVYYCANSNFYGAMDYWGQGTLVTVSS VL: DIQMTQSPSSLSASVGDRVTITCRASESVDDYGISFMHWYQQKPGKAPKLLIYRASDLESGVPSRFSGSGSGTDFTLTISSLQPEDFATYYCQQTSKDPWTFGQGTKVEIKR = 0.13
Hu2.1-94 IgG (antibody, V domains shown, humanized IgG; also called h2.1-94) VH: EVQLVESGGGLVQPGGSLRLSCAASGDSITRGYWNWVRQAPGKGLEWVGYINYSGTTYYNPSLKSRFTISRDTSKNTLYLQMNSLRAEDTAVYYCATSHNTGEMDYWGQGTLVTVSS VL: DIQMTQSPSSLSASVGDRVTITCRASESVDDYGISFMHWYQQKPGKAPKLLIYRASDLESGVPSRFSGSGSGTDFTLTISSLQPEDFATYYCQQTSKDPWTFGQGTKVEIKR = 0.253

INPUT: Quick check: Kd of Hu11G9-46 IgG (antibody, V domains shown, humanized IgG) VH: EVQLVESGGGLVQPGGSLRLSCAASGDSITSGYWNWVRQAPGKGLEWVGYISYSGSTYYNPSLKSRFTISRDTSKNTFYLQMNSLRAEDTAVYYCAGLNDLYLYFDVWGQGTLVTVSS VL: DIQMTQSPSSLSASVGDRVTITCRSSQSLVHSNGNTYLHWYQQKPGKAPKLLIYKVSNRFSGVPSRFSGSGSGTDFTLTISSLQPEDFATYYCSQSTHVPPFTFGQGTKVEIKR ?
OUTPUT: 0.288

Source: patent US20100280227A1
